target: Dual specificity protein kinase CLK2 (Homo sapiens); settings: at 1 µM;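 note: reported values are mean percent inhibition of CLK2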
measurement-type: inhibition (%)
Respond with the bare value in %.

smi	unit-label	inhibition
Nc1ncc(-c2cccc(S(N)(=O)=O)c2)c2scc(-c3ccc(F)c(Cl)c3)c12	%	-0.72
FC(F)(F)c1cccc(-c2nn3ncccc3c2-c2ccnc(Nc3ccc4c(c3)OCCO4)n2)c1	%	0.64
CNC(=O)c1cc(-c2ccc(F)cc2)cc(-c2ccc(S(=O)(=O)N3CCCC3)cc2)c1N	%	2.42

Q: What value of inhibition has been recorded for this entry: Nc1nc(-c2ccc(F)cc2)c(-c2ccc3ncccc3n2)s1
Ans: 8.8

Q: What value of inhibition has been recorded for this entry: CCn1c(-c2nonc2N)nc2ccccc21
Ans: 4.78
